Tested on: RAW264.7
Assay: Antiinflammatory activity in mouse RAW264.7 cells assessed as inhibition of LPS-induced nitric oxide production incubated for 24 hrs by Griess method
Format: functional, cell-based
Conditions: RAW264.7, 24 h
result_type: IC50 (µM)

CCCCCCC/C=C(\C)[C@@H](O)[C@@H](C)C(=O)N1CCC[C@H]1C(=O)OCC [ETHYL TUMONOATE A] : 9.8

Every entry's value here was drawn from ChEMBL document CHEMBL1821549.
